Source of measurements: ChEMBL document CHEMBL1121916

assay notes: Inhibition of Escherichia coli (K12J53) Dihydopteroate synthase.
API: label(entry) gives Criterion met if the entry's EII50 is strictly smaller than 8; on equality or larger values it gives Criterion not met.

## Input Check if EII50 falls below 8 for Nc1ccc(S(N)(=O)=O)cc1 .
## Output Criterion not met

## Input Check if EII50 falls below 8 for Cn1ccs/c1=N\S(=O)(=O)c1ccc(N)cc1 .
## Output Criterion not met

## Input Check if EII50 falls below 8 for Nc1ccc(S(=O)(=O)NC(=O)c2ccccc2)cc1 [SULFABENZAMIDE] .
## Output Criterion met

## Input Check if EII50 falls below 8 for CC(=O)NS(=O)(=O)c1ccc(N)cc1 [SULFACETAMIDE] .
## Output Criterion met

## Input Check if EII50 falls below 8 for COc1cc(NS(=O)(=O)c2ccc(N)cc2)nc(OC)n1 [SULFADIMETHOXINE] .
## Output Criterion met

## Input Check if EII50 falls below 8 for Cc1nnc(NS(=O)(=O)c2ccc(N)cc2)s1 [SULFAMETHIZOLE] .
## Output Criterion met

## Input Check if EII50 falls below 8 for Cc1cc(C)nc(N(C)S(=O)(=O)c2ccc(N)cc2)n1 .
## Output Criterion not met

## Input Check if EII50 falls below 8 for CN(C)S(=O)(=O)c1ccc(N)cc1 .
## Output Criterion not met

## Input Check if EII50 falls below 8 for Cn1cccn/c1=N\S(=O)(=O)c1ccc(N)cc1 .
## Output Criterion not met

## Input Check if EII50 falls below 8 for Nc1ccc(S(=O)(=O)Nc2ncccn2)cc1 .
## Output Criterion met

* * *

assay notes: Inhibition of Escherichia coli (K12J53) Dihydopteroate synthase.
measured parameter: EII50
Number, no unit, nothing else.

## Input Recorded EII50 of CN(c1ccccn1)S(=O)(=O)c1ccc(N)cc1 , please.
## Output 30

## Input Recorded EII50 of CN(c1nccs1)S(=O)(=O)c1ccc(N)cc1 , please.
## Output 35.4

## Input Recorded EII50 of Cc1cc(C)n(C)/c(=N/S(=O)(=O)c2ccc(N)cc2)n1 , please.
## Output 26

## Input Recorded EII50 of CNS(=O)(=O)c1ccc(N)cc1 , please.
## Output 32.4

## Input Recorded EII50 of Cc1cc(C)nc(NS(=O)(=O)c2ccc(N)cc2)n1 [SULFAMETHAZINE] , please.
## Output 1.92

## Input Recorded EII50 of N=C(N)NS(=O)(=O)c1ccc(N)cc1 , please.
## Output 10.2

* * *

assay notes: PKa value was measured
Type: physicochemical
// 0 (no) strictly below 7 in pKa; 1 (yes) otherwise

## Input Dear colleague, could you confirm whether Cc1cc(C)nc(NS(=O)(=O)c2ccc(N)cc2)n1 has pKa at or above 7?
## Output 1 (yes)

## Input Dear colleague, could you confirm whether Nc1ccc(S(=O)(=O)NC(=O)c2ccccc2)cc1 [SULFABENZAMIDE] has pKa at or above 7?
## Output 0 (no)

## Input Dear colleague, could you confirm whether N#CNS(=O)(=O)c1ccc(N)cc1 has pKa at or above 7?
## Output 0 (no)

## Input Dear colleague, could you confirm whether COc1cc(NS(=O)(=O)c2ccc(N)cc2)nc(OC)n1 has pKa at or above 7?
## Output 0 (no)

## Input Dear colleague, could you confirm whether Cc1nnc(NS(=O)(=O)c2ccc(N)cc2)s1 has pKa at or above 7?
## Output 0 (no)

## Input Dear colleague, could you confirm whether Nc1ccc(S(=O)(=O)Nc2nccs2)cc1 has pKa at or above 7?
## Output 1 (yes)

## Input Dear colleague, could you confirm whether CNS(=O)(=O)c1ccc(N)cc1 has pKa at or above 7?
## Output 1 (yes)

## Input Dear colleague, could you confirm whether NC(=O)NS(=O)(=O)c1ccc(N)cc1 [SULFACARBAMIDE] has pKa at or above 7?
## Output 0 (no)

## Input Dear colleague, could you confirm whether CC(=O)NS(=O)(=O)c1ccc(N)cc1 [SULFACETAMIDE] has pKa at or above 7?
## Output 0 (no)

## Input Dear colleague, could you confirm whether Nc1ccc(S(=O)(=O)Nc2ccccn2)cc1 has pKa at or above 7?
## Output 1 (yes)
